Cited source: PubChem BioAssay

target: NADPH oxidase 4 (Homo sapiens) (UniProt Q9NPH5); experiment: NOX4-dependent H2O2 signal modulators, primary screen, NOX inhibitor project, cell-based, HEK293-NOX4, tetracycline-induced, Amplex Red fluorescence (AID 1160); conditions: 45 min, higher = more signal, called active from +8 up or from −8 down
Sequence (Q9NPH5 whole entry, looked up): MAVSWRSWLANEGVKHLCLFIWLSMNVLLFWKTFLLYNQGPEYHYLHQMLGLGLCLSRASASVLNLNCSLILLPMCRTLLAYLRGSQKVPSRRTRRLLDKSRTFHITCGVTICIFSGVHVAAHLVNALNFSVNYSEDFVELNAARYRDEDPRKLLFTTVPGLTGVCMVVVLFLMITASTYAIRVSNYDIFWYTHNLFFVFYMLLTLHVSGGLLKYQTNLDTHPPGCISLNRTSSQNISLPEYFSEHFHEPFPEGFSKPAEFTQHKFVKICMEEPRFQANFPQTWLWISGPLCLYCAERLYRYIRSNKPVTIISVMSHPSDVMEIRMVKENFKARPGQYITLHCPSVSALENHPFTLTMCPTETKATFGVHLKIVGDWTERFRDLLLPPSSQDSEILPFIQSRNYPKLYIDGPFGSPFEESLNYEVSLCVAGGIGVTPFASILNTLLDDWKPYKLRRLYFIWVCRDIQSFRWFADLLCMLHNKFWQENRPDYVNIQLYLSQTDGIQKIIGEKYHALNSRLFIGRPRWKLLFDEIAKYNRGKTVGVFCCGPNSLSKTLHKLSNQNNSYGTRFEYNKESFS
Measured Attribute: z-score
Number only, please.

Consider the following illustrative entries.
Compound	Measurement Target	z-score
C=CC1c2cc(O)c(OC)cc2CCN1Cc1cc2c(cc1Br)OCO2 (stereo not drawn)	NADPH oxidase 4 (Homo sapiens) (UniProt Q9NPH5)	-3.87
O=C1O[C@H](c2ccccc2)[C@H](c2ccccc2)N2[C@H]1[C@@H](C(=O)Nc1nc3ccccc3s1)[C@]1(C(=O)Nc3ccccc31)[C@H]2c1ccc(OCCO)cc1	NADPH oxidase 4 (Homo sapiens) (UniProt Q9NPH5)	0.4

Next:
Short answer please: z-score, NADPH oxidase 4 (Homo sapiens) (UniProt Q9NPH5), entry C=CCOC(=O)[C@H]1[C@@H]2C(=O)O[C@@H](c3ccccc3)[C@@H](c3ccccc3)N2[C@@H](c2ccc(OCCOC(=O)[C@H]3C[C@H]4C(=O)N[C@@H](CCCCNC(C)=O)C(=O)N4[C@H]3c3ccc(O)cc3)cc2)[C@]12C(=O)Nc1ccccc12 1.44

====

experiment: E. coli acrAB mutant growth effects, primary screen, E. coli filamentation inducers, strain DRC39, OD650, 48 h (AID 1179);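 note: screen aims at cell division blockers that make cells filament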; conditions: E. coli DRC39 delta-acrAB growth, higher = more signal, called active from +8 up or from −8 down
Measured Attribute: z-score
Number only, please.

Consider the following illustrative entries.
Smiles Text	Measured Attribute	Result Number
COc1ccc([Si](C)(C)[C@@H]2[C@@H](CC(=O)N(CCO)Cc3ccccc3)O[C@]3(C(=O)N(c4ccccc4)c4ccccc43)[C@H]2C)cc1	z-score	1.1
C=C(CCCC)/C(=C/C[C@@H](OC(=O)c1ccncc1)c1ccccc1OCCO)c1cnc2ccccc2c1	z-score	-0.514
CC(C)Cc1ccc(CN2CC[C@@H](NC(=O)Nc3ccccc3)C2)cc1	z-score	-0.748

Next:
What does the data say about its z-score? Entry: COc1cc2c(cc1OC)CN(C(=O)[C@@H]1[C@H]3C(=O)O[C@H](c4ccccc4)[C@H](c4ccccc4)N3[C@H](c3ccc(OCCO)cc3)[C@@]13C(=O)Nc1ccccc13)CC2 0.919

====

assay: E. coli acrAB mutant growth effects, primary screen, E. coli filamentation inducers, strain DRC39, OD650, 24 h (AID 1178); details: higher = more signal, called active from +8 up or from −8 down;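 note: growth measured as culture turbidity by optical density at 650 nm; test concentration not given here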
// reported z-score for each item listed
Number only, please.

Consider the following illustrative entries.
Compound	Result Number
CCCCCCc1nc(-c2cc(C)c(OC)c(C)c2)c(C)c2c1[Si](C(C)C)(C(C)C)OC2	0.326
CN1C(=O)C2C=CC(C(O)c3cccc4ccccc34)N(N3CCCCC3)C2C1=O (stereo not drawn)	-0.619
NC(=O)NCC#Cc1ccc2c(c1)[C@]1(C(=O)N2)[C@H](C(=O)NC[C@H](O)c2ccccc2)[C@H]2C(=O)O[C@H](c3ccccc3)[C@H](c3ccccc3)N2[C@@H]1c1ccc(OCCO)cc1	0.615
COc1cc(CO)cc(I)c1O[C@H]1C=C(C(=O)NCCO)C[C@@H](NCc2ccc(F)cc2)[C@@H]1O	0.988
C=CCC(OC(C)=O)[C@@H]1[C@@H](N(Cc2ccc(-c3cccc(C(F)(F)F)c3)o2)C(=O)c2ccc(-c3ccccc3)cc2)c2cc(OCCCO)ccc2N1C(=O)c1ccc2ccccc2n1 (stereo partly drawn)	-0.347
COC(=O)[C@@]1(Cc2ccccc2)[C@H]2c3cc(C(=O)N(C)C)n(CCN4CNCC4=O)c3C[C@H]2CN1C(=O)c1ccccc1	-0.459

What does the data say about its z-score? Entry: CCOC(=O)C1=C[C@@H](c2ccccc2)N(S(=O)(=O)c2ccc(C)cc2)[C@H]1c1ccccc1Cl -0.581

What does the data say about its z-score? Entry: CN1C(=O)C2C=CC(C(O)c3ccccn3)N(N(c3ccccc3)c3ccccc3)C2C1=O (stereo not drawn) -0.155
